B1: Serine/threonine-protein phosphatase 4 catalytic subunit (Homo sapiens), P60510 (parent)
chain: MAEISDLDRQIEQLRRCELIKESEVKALCAKAREILVEESNVQRVDSPVTVCGDIHGQFYDLKELFRVGGDVPETNYLFMGDFVDRGFYSVETFLLLLALKVRYPDRITLIRGNHESRQITQVYGFYDECLRKYGSVTVWRYCTEIFDYLSLSAIIDGKIFCVHGGLSPSIQTLDQIRTIDRKQEVPHDGPMCDLLWSDPEDTTGWGVSPRGAGYLFGSDVVAQFNAANDIDMICRAHQLVMEGYKWHFNETVLTVWSAPNYCYRCGNVAAILELDEHLQKDFIIFEAAPQETRGIPSKKPVADYFL
partner: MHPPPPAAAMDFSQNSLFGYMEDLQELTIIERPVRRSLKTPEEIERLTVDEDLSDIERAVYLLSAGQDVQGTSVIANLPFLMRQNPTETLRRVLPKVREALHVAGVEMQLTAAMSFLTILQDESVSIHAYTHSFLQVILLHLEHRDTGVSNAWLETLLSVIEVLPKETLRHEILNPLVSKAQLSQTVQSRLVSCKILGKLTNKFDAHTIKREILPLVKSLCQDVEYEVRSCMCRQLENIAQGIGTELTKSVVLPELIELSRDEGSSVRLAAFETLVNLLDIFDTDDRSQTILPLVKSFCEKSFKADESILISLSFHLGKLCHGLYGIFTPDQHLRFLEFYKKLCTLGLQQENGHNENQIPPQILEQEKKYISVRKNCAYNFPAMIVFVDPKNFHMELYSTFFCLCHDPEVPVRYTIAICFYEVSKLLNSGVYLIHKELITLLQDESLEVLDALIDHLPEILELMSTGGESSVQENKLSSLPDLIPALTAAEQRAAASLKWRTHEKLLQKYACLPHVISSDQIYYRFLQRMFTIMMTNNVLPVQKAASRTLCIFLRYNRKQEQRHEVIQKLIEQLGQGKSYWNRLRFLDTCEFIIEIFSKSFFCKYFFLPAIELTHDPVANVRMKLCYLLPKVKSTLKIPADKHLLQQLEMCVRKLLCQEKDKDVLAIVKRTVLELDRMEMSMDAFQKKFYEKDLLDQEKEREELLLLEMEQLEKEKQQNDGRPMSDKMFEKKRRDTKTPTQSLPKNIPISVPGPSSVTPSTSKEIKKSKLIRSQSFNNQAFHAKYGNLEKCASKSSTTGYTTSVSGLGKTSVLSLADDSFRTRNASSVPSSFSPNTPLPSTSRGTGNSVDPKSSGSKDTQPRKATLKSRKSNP

# Variants of: B1
# experimentalContext: with pp4r4_human PPP4R4, Q6NUP7
readoutLabel: effect of a mutation on the interaction

- E277K: disrupting interaction
- R107E: decreasing interaction
- N76D: decreasing interaction
- E39K: decreasing interaction

Alright, here's another variant for you.
I have this variant here, E64K , and I need its recorded effect of a mutation on the interaction.
disrupting interaction
